B1: glmS ribozyme (parent)
chain: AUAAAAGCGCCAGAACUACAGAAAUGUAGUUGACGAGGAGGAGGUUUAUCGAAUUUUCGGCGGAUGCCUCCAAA

Variants of: B1
Assay: self-cleavage kobs at 2500 uM GlcN6P; higher = faster cleavage; RNA array
Conditions: with glucosamine-6-phosphate
This sample holds only a part of the variants without activity.
Provide the reported self-cleavage kobs at 2500 uM GlcN6P of each item.

[Q] Return reported self-cleavage kobs at 2500 uM GlcN6P; argument: AUAAAAGCGCCAGGAUUACAGAAAUGUAGUUGACGAGGAGGAGGCUUAUCGAAUUUUCGGCGGAUGCCUCCAAA [A14G C16U U45C]
[A] 0.00371 s⁻¹

[Q] Same lookup for AUAAAAGCACAAGAACUACAGAAAUGUAGUUGACAAGGAGGAGGUUCAUCGAAUUUUCGGCGGAUGCAUCCAAA [G9A C11A G35A U47C C68A] , please.
[A] < 1e-05 s⁻¹

[Q] Same lookup for AUAAAAGCGCCAGAACUACAGAAAUGUAGUUGUCGAGGAGGAGGUUUAUCCACUUUUCGGCGGAUGCCUCCAAA [A33U G51C A53C] , please.
[A] < 1e-05 s⁻¹

[Q] Same lookup for AUAAAAGCGCCAGAACUACAGAAAUGUAGUUGACGAAGUGGAGGUUUAUCGAACUUUCGGCGGAUGCCUCCAAA [G37A A39U U54C] , please.
[A] 0.000423 s⁻¹

[Q] Same lookup for AUAAAAUCGCCAGAACUACAGAAAUGUAGUUGACUAGCAGGAGGUUUAUCGAAUUUUCGGCGGAUGCCUCCAAA [G7U G35U G38C] , please.
[A] < 1e-05 s⁻¹

[Q] Same lookup for AUAAAAGCGCCAGUACUACAGAAAUGUAGUUGACGAGGAGGAGGUUUAUCGAACUUUCGGCGGAGGCCUCCAAA [A14U U54C U65G] , please.
[A] 0.000411 s⁻¹

[Q] Same lookup for AUAAAAGCGUCAGAACUACAGAAAUGUAGUUGACCAGGAGGAGGUUUAUCGAAUUUUCGACGGAUGCCUCCAAA [C10U G35C G60A] , please.
[A] < 1e-05 s⁻¹

[Q] Same lookup for AUAAAAGCGCCAGAACUACAGAAAUGUAGAUGACGAGGAGGAGGUUUAUCGAAAUUUCGGCGGAUGUAUCCAAA [U30A U54A C67U C68A] , please.
[A] 4.46e-05 s⁻¹

[Q] Same lookup for AUAAAAGCGCCAGAACUACAGAAAUGUAGUUGACGAGGAGGAGGUCUAUCGAAUUUUCGGCGGAUGCCUCAAAA [U46C C71A] , please.
[A] 0.00045 s⁻¹

[Q] Same lookup for AUAAAAGCGCCAGAACUACAGAAAUGUAGUUGCCGAGGAGGAGGUUUAUUGAAUUCUCGGCGGAUGCCUCCAAA [A33C C50U U56C] , please.
[A] < 1e-05 s⁻¹

[Q] Same lookup for AUAAAAGCUCCAGAACUACAGAAAUGUAGUUGACGAGGAGGAGGUUUAUCGCAUUUUCGGCGGAUGCCUCCAAA [G9U A52C] , please.
[A] < 1e-05 s⁻¹

[Q] Same lookup for AUAAAAGCGCCAGAACUACAGAAAUGUAGUUGACGAGGAGGGGCUUUAUCGAAUUUUAGGCGGAUGCUUCCAAA [A42G G44C C58A C68U] , please.
[A] < 1e-05 s⁻¹

[Q] Same lookup for AUAAAGGCGCCAGAACUACAGAAAUGUAGUUGACGAGGAGGAGUUUUAUCGAAUUUUCGGCGGAUGCCUCCAAA [A6G G44U] , please.
[A] < 1e-05 s⁻¹

[Q] Same lookup for AUAAAAGCGCCAGAACUACAGAAAUGUAGUUGACGAGGAGGAGGUUCAUCGAAUUUUCGGCGGAUGCGUCCAAA [U47C C68G] , please.
[A] 5.33e-05 s⁻¹

[Q] Same lookup for AUAAAAGCGCCGGAACUACAGAAAUGUAGUUGACGCGGAGGAGGUUUAUCGAAUUUUCGGCGGAUGCCUUCAAA [A12G A36C C70U] , please.
[A] < 1e-05 s⁻¹

[Q] Same lookup for AUAAAAGCGCCAGAACUACAGAAAUGUAGUUGACCAGGAGGAGGUUGAUGGAAUUUUCGGCGGAUACCUCCAAA [G35C U47G C50G G66A] , please.
[A] 7.72e-05 s⁻¹

[Q] Same lookup for AUAAAAGCGCCAGAACUACAGAAAUGUAGUUGACGAGGAGGAGGUUUAUCGAAGUUUAGGCGGAUGCCUCCAAA [U54G C58A] , please.
[A] 0.000361 s⁻¹

[Q] Same lookup for AUAAAAGCGCCAGAACUACAGAAAUGUAGUUGACGAGCAGUAGGUUUAUCGACUUUUCGGCGGAUGCGUCCAAA [G38C G41U A53C C68G] , please.
[A] < 1e-05 s⁻¹

[Q] Same lookup for AUAAAAGCGCCAGAACUACAGAAAUGUAGUUGACUAGGAGGAGGUUUAUCGAAUUUUCGGCGGAUGCCUCUAAA [G35U C71U] , please.
[A] < 1e-05 s⁻¹

[Q] Same lookup for AUAAAAGCGCCAGAACUACAGAAAUGUAGAUGACGAGGCGGAGGUUUAUCGAAUCUUCGGCGGAUGCCUCCAAA [U30A A39C U55C] , please.
[A] 0.000864 s⁻¹

[Q] Same lookup for AUAAAAGCGCGAGAACUACAGAAAUUUAGUUGACGAGGAGGACGUUUAUCGAAUUUUCGGCGGAUGCCUCCAAA [C11G G26U G43C] , please.
[A] < 1e-05 s⁻¹

[Q] Same lookup for AUAAAAGCGCCAGAACUACAGAAAUGUAGUUCACGAGGAGGAGGUUAAUCGAAUUUUCGGCGGGUGCAUCCAAA [G32C U47A A64G C68A] , please.
[A] < 1e-05 s⁻¹

[Q] Same lookup for AUAAAAGCGCCAGAACUACAGAAAUGUAGUAGACGAGGAGGGGGUUUAUCGAAUUUUCGGCGGAUGCCUCCAAA [U31A A42G] , please.
[A] 0.00902 s⁻¹

[Q] Same lookup for AUAAAAGCGCCAGAACUACAGAAAUGUAGUUGAAGAGGAGGAGGUUUUUCGAAUUUUCGGCGGAUGCAUCGAAA [C34A A48U C68A C71G] , please.
[A] < 1e-05 s⁻¹

[Q] Same lookup for AUAAAAUUGCCAGAACUACAGAAAUGUAGUUGACGAGGAGCAGGUUUAUCGAAUUUUCGGCGGAUGCCUGCAAA [G7U C8U G41C C70G] , please.
[A] < 1e-05 s⁻¹

[Q] Same lookup for AUAAAAGCGCAAGAAUUACAGAAAUGUAGUUGACGAGGAGGAGGUUUAUCGAAGUUUCAGCGGAUGCCUCCAAA [C11A C16U U54G G59A] , please.
[A] 0.000138 s⁻¹

[Q] Same lookup for AUAAACGCGCCAGAACUACAGAAAUGUAGUUGACGAGGACGAGGUUUAUCGAAUUUUCGGUGGAUGCCUCCAAA [A6C G40C C61U] , please.
[A] < 1e-05 s⁻¹

[Q] Same lookup for AUAAAAGCGCCAGAACUACAGAAAUGUAGUCGACGAGGAGGAGGUUUAUCGAAUUUUCGGCGGAUGCCUCCAAA [U31C] , please.
[A] 0.00415 s⁻¹

[Q] Same lookup for AUAAAAACGCCAGAACUACAGAAAUGUAGUUGACGAGGCGGAGGUUUAUCUAAUUUUCGGCGGAUGCCUCCAAA [G7A A39C G51U] , please.
[A] < 1e-05 s⁻¹

[Q] Same lookup for AUAAAAACGCAAGAACUACAGAAAUGUAGUUGACGAGGAGGAGGUUUAUCGUAUUUUCGGCGGAUGCCUACAAA [G7A C11A A52U C70A] , please.
[A] < 1e-05 s⁻¹

[Q] Same lookup for AUAAAAGCGCCAGAAUUACAGAAAUGUAGUUGACGAGGAGGAGGUUUAUCGAGUUUUCGGCGGAUGCCUACAAA [C16U A53G C70A] , please.
[A] 0.000232 s⁻¹

[Q] Same lookup for AUAAAAGCGCCAGAACUACAGAAAUGUAGGUGACGAGGAGGAGGUUUAUCGUAUUUUCGGCGGAUGCCUCCAAA [U30G A52U] , please.
[A] 4.14e-05 s⁻¹

[Q] Same lookup for AUAAAAGCGCCAGAACUACAGAAAUGUAGUUGAACAGGAGGAGGUUUAUCGAAUUUUCGGCGGAUGCCUCCAAA [C34A G35C] , please.
[A] < 1e-05 s⁻¹

[Q] Same lookup for AUAAAAACGCCAGAACUACAGAAAUGUAGUUGACGAGGAGGAGGUUUAUCGAAUUUUCGGCGGAUGGCUCCAAA [G7A C67G] , please.
[A] < 1e-05 s⁻¹

[Q] Same lookup for AUAAAAGCGCCAAAACUACAGAAAUGUAGUUGACGAGGAGGAGGUUGAUCGAAUUUUCGGCGGAUGCCUCCAAA [G13A U47G] , please.
[A] 8.26e-05 s⁻¹

[Q] Same lookup for AUAAAAGCUCCAGUACUACAGAAAUGUAGUUGACGAGGAGGCGGUUUAUCGAAUUUUCGGCGGAUGCCUCCAAA [G9U A14U A42C] , please.
[A] < 1e-05 s⁻¹

[Q] Same lookup for AUAAAAGCGCCAUAACUACAGAAAUGUAGUUGACGUGGAGGAGGUUUAUCGACUUUUCGGCGGAUGCCUCCAAA [G13U A36U A53C] , please.
[A] < 1e-05 s⁻¹

[Q] Same lookup for AUAAAAGCGCCAGAACUACAGAAAUGUAGUCGACGAGGAGGAGGUUUGUCGAAUUUUCGACGGAUGCCUCCAAA [U31C A48G G60A] , please.
[A] < 1e-05 s⁻¹

[Q] Same lookup for AUAAAAGGGCCAGAACUACAGAAAUGUAGUUGACGAGGAGGAAGUUUAUCGAAUUUUCGGCGGAUGCCUCCAAA [C8G G43A] , please.
[A] < 1e-05 s⁻¹

[Q] Same lookup for AUAAAAGCGCCAGUACUACAGAAAUGUAGUUGACGAGGAGGAGGUUUAUUUAAUUUUCGGCGGAUGCCUCCAAA [A14U C50U G51U] , please.
[A] < 1e-05 s⁻¹
